target: Histamine H1 receptor (Cavia porcellus)
test-details: Antagonist activity at histamine H1 receptor in Dunkin-Hartley guinea pig ileum assessed as inhibition of histamine-induced contractions at 30 umol/L
Assay type: functional, tissue-based
setup-conditions: at 30 µM
Would you kindly list inhibition for each of these compounds?
All answers are understood in %, so give the number only.

Req: Look at this compound and give its reported inhibition. O=C1C=C(CN2CCC(=C3c4ccc(Cl)cc4CCc4cccnc43)CC2)CO1
Resp: 94.8

Req: Entry COc1ccccc1C(O)C1OC(=O)C=C1CN1CCC(=C2c3ccc(Cl)cc3CCc3cccnc32)CC1 (stereo not drawn) please
Resp: 74.1

Req: Here is the next compound: O=C1C=C(CN2CCC(=C3c4ccc(Cl)cc4CCc4cccnc43)CC2)/C(=C/c2ccc(F)cc2)O1
Resp: 30.6

Req: Proceed to CS(=O)(=O)c1ccc(/C=C2\OC(=O)C=C2CN2CCC(=C3c4ccc(Cl)cc4CCc4cccnc43)CC2)cc1
Resp: 71.9

Req: // repeat for O=C1C=C(CN2CCC(=C3c4ccc(Cl)cc4CCc4cccnc43)CC2)/C(=C/c2ccc(Cl)cc2)O1 and report
Resp: 66.7

Req: And for CN(C)c1ccc(/C=C2\OC(=O)C=C2CN2CCC(=C3c4ccc(Cl)cc4CCc4cccnc43)CC2)cc1 ?
Resp: 82.3

Req: Further, for COc1ccccc1/C=C1\OC(=O)C=C1CN1CCC(=C2c3ccc(Cl)cc3CCc3cccnc32)CC1 ?
Resp: 87.8

Req: // query: O=C1C=C(CN2CCC(=C3c4ccc(Cl)cc4CCc4cccnc43)CC2)/C(=C/c2ccc(O)cc2)O1
Resp: 65.6

###

Please go through the items and note down their inhibition.
target: Histamine H1 receptor (Cavia porcellus)
test-details: Antagonist activity at histamine H1 receptor in Dunkin-Hartley guinea pig ileum assessed as inhibition of histamine-induced contractions at 3 umol/L
Type: functional, tissue-based
setup-conditions: at 3 µM
Write the number in % without appending the unit.

Req: Data request, read-out inhibition, for COc1ccccc1C(O)C1OC(=O)C=C1CN1CCC(=C2c3ccc(Cl)cc3CCc3cccnc32)CC1 (centres undefined)
Resp: 40.8

Req: O=C1C=C(CN2CCC(=C3c4ccc(Cl)cc4CCc4cccnc43)CC2)/C(=C/c2ccc(Cl)cc2)O1 ?
Resp: 37

Req: Now consider O=C1C=C(CN2CCC(=C3c4ccc(Cl)cc4CCc4cccnc43)CC2)/C(=C/c2ccc(F)cc2)O1 and answer again.
Resp: 6.99

Req: Consider next the compound COc1ccccc1/C=C1\OC(=O)C=C1CN1CCC(=C2c3ccc(Cl)cc3CCc3cccnc32)CC1 in the same way.
Resp: 29.4

Req: Could you do the same for O=C1C=C(CN2CCC(=C3c4ccc(Cl)cc4CCc4cccnc43)CC2)CO1 , please?
Resp: 33.4

Req: Next compound up: COc1cc(/C=C2\OC(=O)C=C2CN2CCC(=C3c4ccc(Cl)cc4CCc4cccnc43)CC2)cc(OC)c1OC
Resp: 4.23

Req: Also check COc1cc(/C=C2\OC(=O)C=C2CN2CCC(=C3c4ccc(Cl)cc4CCc4cccnc43)CC2)ccc1O
Resp: 4.67

Req: Also CS(=O)(=O)c1ccc(/C=C2\OC(=O)C=C2CN2CCC(=C3c4ccc(Cl)cc4CCc4cccnc43)CC2)cc1 ?
Resp: 12.4

Req: What do you get for Clc1ccc2c(c1)CCc1cccnc1C2=C1CCNCC1 ?
Resp: 47.4

###

target: Histamine H1 receptor (Cavia porcellus)
test-details: Antagonist activity at histamine H1 receptor in Dunkin-Hartley guinea pig ileum assessed as inhibition of histamine-induced contractions at 3 umol/L
Format: functional, tissue-based
setup-conditions: at 3 µM
Answer each item with its documented inhibition.
// note: answer is a bare numeric in %

Req: Which inhibition value is on record for O=C1C=C(CN2CCC(=C3c4ccc(Cl)cc4CCc4cccnc43)CC2)/C(=C/c2ccc(O)cc2)O1 ?
Resp: 3.54

Req: Another compound to check: CCOC(=O)N1CCC(=C2c3ccc(Cl)cc3CCc3cccnc32)CC1
Resp: 15.7

Req: Next up: CN(C)c1ccc(/C=C2\OC(=O)C=C2CN2CCC(=C3c4ccc(Cl)cc4CCc4cccnc43)CC2)cc1
Resp: 61.6

Req: Follow-up entry: O=C1C=C(CN2CCC(=C3c4ccc(Cl)cc4CCc4cccnc43)CC2)C(C(O)c2ccccc2)O1 (centres undefined)
Resp: 42.7

###

target: Histamine H1 receptor (Cavia porcellus)
test-details: Antagonist activity at histamine H1 receptor in Dunkin-Hartley guinea pig ileum assessed as inhibition of histamine-induced contractions at 10 umol/L
Type: functional, tissue-based
setup-conditions: at 10 µM
I'd appreciate it if you could supply inhibition values for the items below.
Just the number in %, nothing appended.

Req: What value of inhibition has been reported for the following molecule? COc1cc(/C=C2\OC(=O)C=C2CN2CCC(=C3c4ccc(Cl)cc4CCc4cccnc43)CC2)cc(OC)c1OC
Resp: 32.9

Req: Input CN(C)c1ccc(/C=C2\OC(=O)C=C2CN2CCC(=C3c4ccc(Cl)cc4CCc4cccnc43)CC2)cc1
Resp: 77.6

Req: What would you report for O=C1C=C(CN2CCC(=C3c4ccc(Cl)cc4CCc4cccnc43)CC2)/C(=C/c2ccc(O)cc2)O1 ?
Resp: 41

Req: Also check CCOC(=O)N1CCC(=C2c3ccc(Cl)cc3CCc3cccnc32)CC1
Resp: 33.4

Req: Try the molecule COc1ccccc1C(O)C1OC(=O)C=C1CN1CCC(=C2c3ccc(Cl)cc3CCc3cccnc32)CC1 (stereo not drawn)
Resp: 61.5

Req: Cool, now O=C1C=C(CN2CCC(=C3c4ccc(Cl)cc4CCc4cccnc43)CC2)/C(=C/c2ccc(F)cc2)O1
Resp: 19

Req: # repeat for Clc1ccc2c(c1)CCc1cccnc1C2=C1CCNCC1
Resp: 77.7

Req: Now give it for O=C1C=C(CN2CCC(=C3c4ccc(Cl)cc4CCc4cccnc43)CC2)/C(=C/c2ccc(Cl)cc2)O1 too.
Resp: 51.3

###

target: UniProtKB P31389
Sequence (P31389 whole entry): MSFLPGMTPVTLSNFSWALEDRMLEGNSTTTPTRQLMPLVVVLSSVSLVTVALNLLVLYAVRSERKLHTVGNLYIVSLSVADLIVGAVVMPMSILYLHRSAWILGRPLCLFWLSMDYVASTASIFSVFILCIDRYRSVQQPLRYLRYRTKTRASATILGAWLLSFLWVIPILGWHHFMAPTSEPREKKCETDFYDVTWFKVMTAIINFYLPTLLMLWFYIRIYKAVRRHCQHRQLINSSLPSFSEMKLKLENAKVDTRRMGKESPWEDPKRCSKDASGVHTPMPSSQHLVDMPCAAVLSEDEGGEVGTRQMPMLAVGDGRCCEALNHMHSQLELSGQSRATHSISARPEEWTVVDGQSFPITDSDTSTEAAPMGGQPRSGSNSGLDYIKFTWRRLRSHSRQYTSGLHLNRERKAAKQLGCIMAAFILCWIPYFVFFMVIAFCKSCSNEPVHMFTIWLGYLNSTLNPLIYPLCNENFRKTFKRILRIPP
test-details: Antagonist activity at histamine H1 receptor in Dunkin-Hartley guinea pig ileum assessed as inhibition of histamine-induced contractions at 30 umol/L
Format: functional, tissue-based
setup-conditions: at 30 µM
Would you kindly list inhibition for each of these compounds?
Give your result in % as a bare value.

Req: Would you mind telling me what inhibition value was observed for CCOC(=O)N1CCC(=C2c3ccc(Cl)cc3CCc3cccnc32)CC1 ?
Resp: 64.7

Req: Now consider Clc1ccc2c(c1)CCc1cccnc1C2=C1CCNCC1 .
Resp: 80.4

Req: Now consider COc1cc(/C=C2\OC(=O)C=C2CN2CCC(=C3c4ccc(Cl)cc4CCc4cccnc43)CC2)ccc1O .
Resp: 62.6

Req: Now try COc1cc(/C=C2\OC(=O)C=C2CN2CCC(=C3c4ccc(Cl)cc4CCc4cccnc43)CC2)cc(OC)c1OC .
Resp: 52.8
